Data credit: patent US12473262B2

# measurementTarget: aryl hydrocarbon receptor (AhR) (Mus musculus (Mouse), UniProt P30561)
# Sequence (P30561 10-805): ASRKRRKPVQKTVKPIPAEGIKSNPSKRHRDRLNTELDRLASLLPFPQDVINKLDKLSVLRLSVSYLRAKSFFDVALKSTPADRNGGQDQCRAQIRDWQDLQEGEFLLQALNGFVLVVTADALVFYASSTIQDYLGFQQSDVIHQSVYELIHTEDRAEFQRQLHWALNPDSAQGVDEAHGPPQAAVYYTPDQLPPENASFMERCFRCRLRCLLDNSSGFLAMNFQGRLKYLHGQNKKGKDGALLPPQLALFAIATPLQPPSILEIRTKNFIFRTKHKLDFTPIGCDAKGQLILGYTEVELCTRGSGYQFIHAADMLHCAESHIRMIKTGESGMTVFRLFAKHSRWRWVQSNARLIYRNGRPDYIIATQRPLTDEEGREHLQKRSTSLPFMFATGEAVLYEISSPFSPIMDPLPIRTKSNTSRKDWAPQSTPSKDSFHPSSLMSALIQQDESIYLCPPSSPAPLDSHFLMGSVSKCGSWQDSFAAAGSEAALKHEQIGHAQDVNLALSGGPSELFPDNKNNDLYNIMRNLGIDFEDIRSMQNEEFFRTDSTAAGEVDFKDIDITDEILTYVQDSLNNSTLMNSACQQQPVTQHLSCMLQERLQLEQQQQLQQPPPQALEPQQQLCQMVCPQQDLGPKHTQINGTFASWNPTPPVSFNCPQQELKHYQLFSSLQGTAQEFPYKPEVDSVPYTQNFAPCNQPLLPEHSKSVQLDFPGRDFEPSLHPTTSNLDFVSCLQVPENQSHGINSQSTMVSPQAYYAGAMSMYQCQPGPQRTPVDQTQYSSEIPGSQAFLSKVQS
# Sequence (P53762 whole entry partner): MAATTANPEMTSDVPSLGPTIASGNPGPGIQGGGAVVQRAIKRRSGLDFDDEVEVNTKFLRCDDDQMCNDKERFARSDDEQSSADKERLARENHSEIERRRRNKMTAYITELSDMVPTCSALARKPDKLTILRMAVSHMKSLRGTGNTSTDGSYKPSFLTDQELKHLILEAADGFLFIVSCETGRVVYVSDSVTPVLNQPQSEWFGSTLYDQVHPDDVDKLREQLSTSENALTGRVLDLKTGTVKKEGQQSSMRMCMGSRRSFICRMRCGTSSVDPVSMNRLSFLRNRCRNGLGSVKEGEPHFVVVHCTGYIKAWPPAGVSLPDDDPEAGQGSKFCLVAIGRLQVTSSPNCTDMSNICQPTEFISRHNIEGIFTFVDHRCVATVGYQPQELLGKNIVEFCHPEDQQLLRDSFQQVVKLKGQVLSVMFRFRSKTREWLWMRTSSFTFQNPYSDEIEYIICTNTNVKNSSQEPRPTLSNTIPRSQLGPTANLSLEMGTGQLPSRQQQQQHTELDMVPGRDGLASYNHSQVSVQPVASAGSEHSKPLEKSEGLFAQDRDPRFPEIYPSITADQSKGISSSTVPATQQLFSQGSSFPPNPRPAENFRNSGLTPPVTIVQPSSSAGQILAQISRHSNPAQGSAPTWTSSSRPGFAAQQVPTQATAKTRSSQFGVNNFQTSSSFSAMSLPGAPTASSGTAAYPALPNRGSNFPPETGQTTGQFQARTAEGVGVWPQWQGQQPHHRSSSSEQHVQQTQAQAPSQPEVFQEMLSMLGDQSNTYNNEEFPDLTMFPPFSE
# procedureSummary: AhR ligand screening: AhRE-luciferase reporter in transfected Hepa1 cells
# Type: cell-based
# conditionLabel: luciferase expression at 100 nM test compound relative to 100 nM benchmark compound 11-cl-BBQ
Reported Fold relative to benchmark @ 100 nM values for a set of molecules

{"columns": ["molecule", "measurementTarget", "Fold relative to benchmark @ 100 nM (fold)"],
 "data": [
  ["O=C(c1ccc2c(c1)nc(-c1cccc3ccccc13)n2Cc1ccc(SC(F)(F)F)cc1)N1CCCCC1 [Compound 1411]", "aryl hydrocarbon receptor (AhR) (Mus musculus (Mouse), UniProt P30561)", 0.03],
  ["COc1ccccc1S(=O)(=O)n1c(-c2cccc3ccccc23)nc2ccc(C(=O)N3CCCCC3)cc21 [Compound 1391]", "aryl hydrocarbon receptor (AhR) (Mus musculus (Mouse), UniProt P30561)", 0.03],
  ["O=C(c1ccc(F)c(F)c1)n1c(-c2ccccc2-c2ccccc2)nc2cc(Cl)ccc21 [Compound 766]", "aryl hydrocarbon receptor (AhR) (Mus musculus (Mouse), UniProt P30561)", 0.08],
  ["Cc1ccc2c(c1)nc(-c1cccc3ccccc13)n2C(=O)c1ccccc1 [Compound 701]", "aryl hydrocarbon receptor (AhR) (Mus musculus (Mouse), UniProt P30561)", 0.08],
  ["O=C(c1ccccc1)n1c(-c2cccc3ccccc23)nc2cc(Cl)ccc21 [Compound 494]", "aryl hydrocarbon receptor (AhR) (Mus musculus (Mouse), UniProt P30561)", 0.94],
  ["O=C(c1ccc2nc(-c3cccc4ccccc34)n(S(=O)(=O)c3ccc(Cl)cc3)c2c1)N1CCCCC1 [Compound 1367]", "aryl hydrocarbon receptor (AhR) (Mus musculus (Mouse), UniProt P30561)", 0.03],
  ["O=C(c1ccc(F)c(F)c1)n1c(-c2cccc3c2CCCC3)nc2cc(Cl)ccc21 [Compound 779]", "aryl hydrocarbon receptor (AhR) (Mus musculus (Mouse), UniProt P30561)", 0.04],
  ["O=C(C1CC1)n1c(-c2cccc3ccccc23)nc2ccc(Cl)cc21 [Compound 774]", "aryl hydrocarbon receptor (AhR) (Mus musculus (Mouse), UniProt P30561)", 0.84],
  ["O=C(c1cccc2ccccc12)n1c(-c2ccccc2)nc2ccc(Cl)cc21 [Compound 491]", "aryl hydrocarbon receptor (AhR) (Mus musculus (Mouse), UniProt P30561)", 0.03],
  ["O=C(c1ccc2ccccc2c1)c1c[nH]c2ccc(Cl)cc12 [Compound 885]", "aryl hydrocarbon receptor (AhR) (Mus musculus (Mouse), UniProt P30561)", 0.02],
  ["O=c1c2cccc3cccc(c32)c2nc3ccccc3n12 [Compound 523]", "aryl hydrocarbon receptor (AhR) (Mus musculus (Mouse), UniProt P30561)", 0.82],
  ["Fc1ccc(-n2c(-c3cccc4ccccc34)nc3cc(Cl)ccc32)nc1 [Compound 854]", "aryl hydrocarbon receptor (AhR) (Mus musculus (Mouse), UniProt P30561)", 0.03],
  ["COc1ccc(-c2nc3cc(Cl)ccc3n2C(=O)c2ccccc2)cc1 [Compound 496]", "aryl hydrocarbon receptor (AhR) (Mus musculus (Mouse), UniProt P30561)", 0.03],
  ["COc1ccc(C(=O)n2c(-c3cc4ccccc4s3)nc3cc(Cl)ccc32)cc1 [Compound 590]", "aryl hydrocarbon receptor (AhR) (Mus musculus (Mouse), UniProt P30561)", 0.2],
  ["O=C(c1ccc(F)c(F)c1)n1c(-c2cccc(C(F)(F)F)c2)nc2cc(Cl)ccc21 [Compound 788]", "aryl hydrocarbon receptor (AhR) (Mus musculus (Mouse), UniProt P30561)", 0.08],
  ["O=C(c1ccc2c(c1)OCCO2)n1c(-c2cccc3ccccc23)nc2cc(Cl)ccc21 [Compound 850]", "aryl hydrocarbon receptor (AhR) (Mus musculus (Mouse), UniProt P30561)", 0.88],
  ["O=C(c1ccc(F)c(F)c1)n1c(-c2ccc(-c3ccccc3)cc2)nc2ccc(Cl)cc21 [Compound 644]", "aryl hydrocarbon receptor (AhR) (Mus musculus (Mouse), UniProt P30561)", 0.11]
]}
